target: cloned human NR1/NR2B ion channels (Homo sapiens (Human), UniProt Q05586+Q13224); assay: HNR2BC: calcium influx assay on cloned human NR1/NR2B ion channels expressed in HEK cells; conditions: HEK cells hNR1/NR2B, 100 μM glutamate + 100 μM glycine, 3 parameter plot
Sequence (Q13224 27-1484, other chains not shown): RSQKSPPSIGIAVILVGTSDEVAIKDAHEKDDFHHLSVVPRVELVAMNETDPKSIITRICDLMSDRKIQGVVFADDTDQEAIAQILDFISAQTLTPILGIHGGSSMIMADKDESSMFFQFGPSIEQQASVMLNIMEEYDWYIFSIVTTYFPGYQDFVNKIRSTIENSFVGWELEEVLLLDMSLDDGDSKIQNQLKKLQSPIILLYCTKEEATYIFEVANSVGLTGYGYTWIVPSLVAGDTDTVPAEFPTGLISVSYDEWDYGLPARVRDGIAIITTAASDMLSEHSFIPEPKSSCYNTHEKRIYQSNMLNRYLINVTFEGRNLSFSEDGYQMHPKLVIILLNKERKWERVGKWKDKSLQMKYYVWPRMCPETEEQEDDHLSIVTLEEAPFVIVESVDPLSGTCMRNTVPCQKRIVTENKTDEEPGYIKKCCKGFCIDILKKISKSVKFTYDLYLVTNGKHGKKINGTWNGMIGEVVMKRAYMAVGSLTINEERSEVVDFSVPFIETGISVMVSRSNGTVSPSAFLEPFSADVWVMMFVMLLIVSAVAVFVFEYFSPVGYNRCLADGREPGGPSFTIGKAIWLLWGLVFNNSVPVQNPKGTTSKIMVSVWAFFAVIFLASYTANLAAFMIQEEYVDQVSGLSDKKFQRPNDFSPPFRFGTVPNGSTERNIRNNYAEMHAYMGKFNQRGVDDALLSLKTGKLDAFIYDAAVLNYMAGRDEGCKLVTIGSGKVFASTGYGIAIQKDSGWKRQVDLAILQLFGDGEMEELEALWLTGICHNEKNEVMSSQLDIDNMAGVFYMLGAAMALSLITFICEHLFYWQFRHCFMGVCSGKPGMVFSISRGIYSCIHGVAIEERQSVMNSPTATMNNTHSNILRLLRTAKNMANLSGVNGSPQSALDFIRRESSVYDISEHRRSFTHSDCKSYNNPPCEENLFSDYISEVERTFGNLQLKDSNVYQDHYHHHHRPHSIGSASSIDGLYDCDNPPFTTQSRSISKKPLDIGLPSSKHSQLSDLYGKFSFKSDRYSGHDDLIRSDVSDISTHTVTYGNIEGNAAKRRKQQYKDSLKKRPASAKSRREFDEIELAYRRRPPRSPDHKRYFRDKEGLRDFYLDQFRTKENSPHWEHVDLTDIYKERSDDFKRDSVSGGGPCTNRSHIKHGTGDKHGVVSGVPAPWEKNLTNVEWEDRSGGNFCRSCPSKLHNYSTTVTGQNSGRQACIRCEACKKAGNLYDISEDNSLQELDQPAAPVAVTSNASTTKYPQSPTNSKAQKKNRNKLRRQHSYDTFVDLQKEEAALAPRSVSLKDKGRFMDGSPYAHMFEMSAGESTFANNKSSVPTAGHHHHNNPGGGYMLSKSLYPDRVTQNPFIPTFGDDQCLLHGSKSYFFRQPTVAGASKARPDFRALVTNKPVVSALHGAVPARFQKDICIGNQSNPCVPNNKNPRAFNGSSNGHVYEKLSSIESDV
Field: IC50. Provide a value for each of the molecules that follow.
State the answer as a number, implicitly in µM.

Reported IC50 for Cc1nccn1Cc1cn(-c2ccc(Cl)c(OC(F)F)c2)nn1 [Example 93] : what is it?
0.41

Next entry: OCCc1nccn1Cc1cn(-c2ccc(F)c(OC(F)F)c2)nn1 [Example 101]
1.65

Okay, and Cn1nccc1Cc1cn(-c2ccc(F)c(Cl)c2)nn1 [Example 109] ?
109

Another: Fc1ccc(-n2cc(Cn3ccnc3C3CC3)nn2)cc1C(F)F [Example 82]
4.89

Could you do the same for CCc1nccn1Cc1cn(-c2ccc(F)c(Cl)c2)nn1 [Example 42] , please?
3.17

Further, for CC(C)c1nccn1Cc1cn(-c2ccc(Cl)c(OC(F)F)c2)nn1 [Example 97] ?
0.58

Repeat with CC(F)(F)c1cc(-n2cc(Cn3ccnc3N)nn2)ccc1F [Example 114]
2.34

And for CC(C)c1nccn1Cc1cn(-c2ccc(F)c(C(F)F)c2)nn1 [Example 84] ?
4.2

Here is the next molecule: Fc1ccc(-n2cc(Cc3cc[nH]n3)nn2)cc1C(F)F [Example 115]
10.5

Now consider CC(C)c1nccn1Cc1cn(-c2ccc(Cl)cc2)nn1 [Example 23] and answer again.
17.5
